Each record here notes measured OD450 nm.
- target_system: T1, human MSLN-hFc protein (Acro, Cat. No. MSN-H5253) (human, UniProt Q13421 296-580)
- T1 construct: bought protein; also called human MSLN full-length protein; not shown: human Fc (hFc) of the bought protein
- T1 sequence (Q13421 other isoform, or with tags, fused parts or gaps limits assumed): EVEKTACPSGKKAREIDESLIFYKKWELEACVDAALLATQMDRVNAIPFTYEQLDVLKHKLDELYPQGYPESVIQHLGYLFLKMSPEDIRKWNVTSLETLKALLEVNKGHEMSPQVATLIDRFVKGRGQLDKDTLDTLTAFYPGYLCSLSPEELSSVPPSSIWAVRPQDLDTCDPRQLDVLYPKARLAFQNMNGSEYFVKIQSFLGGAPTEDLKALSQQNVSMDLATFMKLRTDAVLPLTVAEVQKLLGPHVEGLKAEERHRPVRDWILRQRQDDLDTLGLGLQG
- measurement_notes: ELISA, coated human MSLN-hFc, antibody 0.0001 nM
Please give only the number in your answer, with no unit.

Here is how some binders turned out for OD450 nm.
binder: F2.23.12-H4 (scFv, not shown: small tags and cut ends, also called S009-F2.23.12 humanized VH1 + VL4) scFv: EVQLVQSGAEVKKPGASVKVSCKASGYTFTNYWMHWVRQAPGQGLEWMGNINPSNGGPYYNERFRSRVTMTVDKSTSTVYMELSSLRSEDTAVYYCARPYYGSSYGYFDYWGQGTTVTVSSGGGGSGGGGSGGGGSDIQMTQSPSSLSASVGDRVTITCKASQDINKYIAWYQHKPGKAPKLLIHYTSELQPGVPSRFSGSGSGRDYTFTISSLQPEDIATYYCLQYANPLRTFGGGTKVEIK
observed_value: 0.07
//
binder: F2.23.12-H16 (scFv, not shown: small tags and cut ends, also called S009-F2.23.12 humanized VH4 + VL4) scFv: EVQLVQSGAEVKKPGASVKVSCKASGYTFTNYWMHWVRQAPGQGLEWMGNINPSQGGPYYNERFRSRVTMTVDKSTSTAYMELSSLRSEDTAVYYCARPYYGSSYGYFDYWGQGTTVTVSSGGGGSGGGGSGGGGSDIQMTQSPSSLSASVGDRVTITCKASQDINKYIAWYQHKPGKAPKLLIHYTSELQPGVPSRFSGSGSGRDYTFTISSLQPEDIATYYCLQYANPLRTFGGGTKVEIK
observed_value: 0.05

Now, please, on to the next binder.
Query :: Item F2.23.12-H5 (scFv, not shown: small tags and cut ends, also called S009-F2.23.12 humanized VH2 + VL1) scFv: EVQLVQSGAEVKKPGASVKVSCKASGYTFTNYWMHWVRQAPGQGLEWMGNINPSNGGPYYNERFRSRVTMTVDKSTSTAYMELSSLRSEDTAVYYCARPYYGSSYGYFDYWGQGTTVTVSSGGGGSGGGGSGGGGSDIQMTQSPSSLSASVGDRVTITCKASQDINKYIAWYQQKPGKAPKLLIHYTSELQPGVPSRFSGSGSGTDFTFTISSLQPEDIATYYCLQYANPLRTFGGGTKVEIK has what recorded OD450 nm?
Result :: 0.06
